Target: hEg5-367H (Homo sapiens)
Construct: motor domain (amino acid residues 1–367) of human Eg5; His6 (C); made in house
Sequence (P52732 1-367): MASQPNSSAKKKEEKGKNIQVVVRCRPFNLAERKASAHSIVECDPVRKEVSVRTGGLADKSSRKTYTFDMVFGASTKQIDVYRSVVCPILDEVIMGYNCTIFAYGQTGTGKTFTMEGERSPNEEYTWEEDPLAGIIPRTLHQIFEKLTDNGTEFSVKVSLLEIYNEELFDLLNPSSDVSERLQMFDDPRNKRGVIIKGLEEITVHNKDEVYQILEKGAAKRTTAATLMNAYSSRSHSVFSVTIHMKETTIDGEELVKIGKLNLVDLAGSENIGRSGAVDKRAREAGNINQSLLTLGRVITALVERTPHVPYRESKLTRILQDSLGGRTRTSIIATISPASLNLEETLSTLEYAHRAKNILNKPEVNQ
Test: ATP hydrolysis by recombinant human Eg5 motor domain (NADH-enzyme coupled assay)
Assay type: biochemical
Settings: wild-type motor domain, Figure 4B; legend: basal ATP hydrolysis; read-out: IC50(μM) of monastrol, hEg5-367H
reported.property: IC50 (µM)
Respond numerically; units are µM and should not be typed.

Exam item: Returns the measured IC50 for the input compound. Input: CCOC(=O)C1=C(C)NC(=S)NC1c1cccc(O)c1 (stereo not shown)
Marked response: 10
